Below, each entry is listed with its recorded pIC50.
test system: Tumor Cells; experiment: Cell Mat assay, cell growth inhibition, tumor cells (methods of WO 95/10516); type: cell-based; conditions: read-out: Cell Growth Inhibition MAT Assay Tumor Cells IC50
Note: pIC50 values are expressed as the negative base-10 logarithm of concentration in M.

COc1ccc(CSC[C@H](N)C(=O)N2CCC(=C3c4ccc(Cl)cc4CCc4cccnc43)CC2)cc1 [EX 31] = 4.90

Consider the additional compound presented here.
Input: Which pIC50 reading was recorded for the compound CCCC[C@H]1CN(C2c3ccc(Cl)cc3CCc3cc(Br)cnc32)CCN1C(=O)CC1CCN(C(N)=O)CC1 (stereo partly shown) [EX 37, Step C] ?
Output: 5.51

###

system: Normal Cells; assay: Cell Mat assay, cell growth inhibition, normal cells (methods of WO 95/10516); type: cell-based; details: read-out: Cell Growth Inhibition MAT Assay Normal Cells IC50 in µM
MEASUREMENT_TYPE: IC50

Input: Which IC50 reading was recorded for the compound CCCC[C@H]1CN(C2c3ccc(Cl)cc3CCc3cc(Br)cnc32)CCN1C(=O)Cc1cc[n+]([O-])cc1 (stereo partly shown) ?
Output: > 25 µM
